molecular target: human V1aR (Homo sapiens, UniProt P37288); construct: expressed in transfected cells; assay: Agonist activity at vasopressin V1a receptors, cell-based FLIPR calcium assay; conditions: HEK-flpin cells stably expressing hV1aR; intracellular calcium fluorescence; averaged; read-out: EC50 (Avg)
Sequence (P37288 whole entry): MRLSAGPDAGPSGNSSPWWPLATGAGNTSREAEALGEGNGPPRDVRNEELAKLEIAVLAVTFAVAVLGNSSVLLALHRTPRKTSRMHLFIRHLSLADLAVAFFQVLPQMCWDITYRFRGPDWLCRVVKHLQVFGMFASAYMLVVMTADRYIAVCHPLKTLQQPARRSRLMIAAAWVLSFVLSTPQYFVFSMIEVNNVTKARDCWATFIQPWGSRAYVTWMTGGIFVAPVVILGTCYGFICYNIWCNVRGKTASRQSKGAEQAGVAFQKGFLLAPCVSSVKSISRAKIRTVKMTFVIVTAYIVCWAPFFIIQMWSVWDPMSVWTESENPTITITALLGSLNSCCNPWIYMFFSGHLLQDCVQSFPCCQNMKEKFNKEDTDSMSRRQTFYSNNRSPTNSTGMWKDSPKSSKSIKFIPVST
readoutKind: EC50

### Prompt Please give measured EC50 of the following entry: CC[C@H](C)[C@@H]1NC(=O)[C@H](Cc2ccccc2)NC(=O)[C@@H](N)CSSC[C@@H](C(=O)N2CCC[C@H]2C(=O)N[C@@H](CCCNCCCCCCNC(=O)CC[C@H](NC(=O)[C@H](CCCNC(=N)N)NC(=O)[C@@H]2CCCN2C(=O)[C@H](C)NC(=O)[C@H](CC(N)=O)NC(=O)[C@H](CCC(N)=O)NC(=O)[C@H](Cc2ccccc2)NC(=O)[C@@H](Cc2ccc(OC)cc2)NC(=O)C2CCCCC2)C(N)=O)C(=O)NCC(N)=O)NC(=O)[C@H](CC(N)=O)NC(=O)[C@H](CCC(N)=O)NC1=O
### Response 2.5 nM

====

molecular target: human V1aR (Homo sapiens, UniProt P37288); construct: expressed in transfected cells; assay: Agonist activity at vasopressin V1a receptors, cell-based FLIPR calcium assay; details: HEK-flpin cells stably expressing hV1aR; intracellular calcium fluorescence; averaged; read-out: EC50 (Avg)
Attribute: EC50

Worked set:
### Prompt Please give measured EC50 of the following entry: CCCCCCC(=O)N[C@H](Cc1ccc(OC)cc1)C(=O)N[C@@H](Cc1ccccc1)C(=O)N[C@@H](CCC(N)=O)C(=O)N[C@@H](CC(N)=O)C(=O)N[C@@H](C)C(=O)N1CCC[C@H]1C(=O)N[C@@H](CCCNC(=N)N)C(=O)N[C@@H](CCC(=O)NCCCCCCNCCC[C@H](NC(=O)[C@@H]1CCCN1C(=O)[C@@H]1CSSC[C@H](N)C(=O)N[C@@H](Cc2ccccc2)C(=O)N[C@@H]([C@@H](C)CC)C(=O)N[C@@H](CCC(N)=O)C(=O)N[C@@H](CC(N)=O)C(=O)N1)C(=O)NCC(N)=O)C(N)=O [Compound 17]
### Response 2.9 nM

### Prompt Tell us which EC50 value is on record for CC[C@H](C)[C@@H]1NC(=O)[C@H](Cc2ccccc2)NC(=O)[C@@H](N)CSSC[C@@H](C(=O)N2CCC[C@H]2C(=O)N[C@@H](CCCNCCCCCCNC(=O)CC[C@H](NC(=O)[C@H](CCCNC(=N)N)NC(=O)[C@@H]2CCCN2C(=O)[C@H](C)NC(=O)[C@H](CC(N)=O)NC(=O)[C@H](CCC(N)=O)NC(=O)[C@H](Cc2ccccc2)NC(=O)[C@@H](Cc2ccc(OC)cc2)NC(=O)CC(C)C)C(N)=O)C(=O)NCC(N)=O)NC(=O)[C@H](CC(N)=O)NC(=O)[C@H](CCC(N)=O)NC1=O [Compound 21]
### Response 1.5 nM

Now consider a different compound.
### Prompt Supply reported EC50 belonging to this compound: CC[C@H](C)[C@@H]1NC(=O)[C@H](Cc2ccccc2)NC(=O)[C@@H](O)CSSC[C@@H](C(=O)N2CCC[C@H]2C(=O)N[C@@H](CCNC(=O)[C@@H](N)CCCCNC(=O)CC[C@H](NC(=O)[C@H](CCCNC(=N)N)NC(=O)[C@@H]2CCCN2C(=O)[C@H](CCCCN)NC(=O)[C@H](CC(N)=O)NC(=O)[C@H](CCC(N)=O)NC(=O)[C@H](Cc2ccccc2)NC(=O)[C@@H](Cc2ccc(OC)cc2)NC(=O)CC(C)C)C(N)=O)C(=O)NCC(N)=O)NC(=O)[C@H](CC(N)=O)NC(=O)[C@H](CCC(N)=O)NC1=O [Compound 33]
### Response 1.1 nM

====

Entries and their measured Emax follow.
molecular target: human V1aR (Homo sapiens, UniProt P37288); construct: expressed in transfected cells; assay: Agonist activity at vasopressin V1a receptors, cell-based FLIPR calcium assay; settings: read-out: Efficacy Avg. (%)

### Prompt Please indicate recorded Emax of CC[C@H](C)[C@@H]1NC(=O)[C@H](Cc2ccccc2)NC(=O)[C@@H](N)CSSC[C@@H](C(=O)N2CCC[C@H]2C(=O)N[C@@H](CCCNCCCCCNC(=O)CC[C@H](NC(=O)[C@H](CCCNC(=N)N)NC(=O)[C@@H]2CCCN2C(=O)[C@H](Cc2c[nH]cn2)NC(=O)[C@H](CC(N)=O)NC(=O)[C@H](CCC(N)=O)NC(=O)[C@H](Cc2ccccc2)NC(=O)[C@@H](Cc2ccc(OC)cc2)NC(=O)Cc2ccccc2)C(N)=O)C(=O)NCC(N)=O)NC(=O)[C@H](CC(N)=O)NC(=O)[C@H](CCC(N)=O)NC1=O measured with human V1aR (Homo sapiens, UniProt P37288).
### Response 48%

### Prompt // output Emax; input CC[C@H](C)[C@@H]1NC(=O)[C@H](Cc2ccccc2)NC(=O)[C@@H](O)CSSC[C@@H](C(=O)N2CCC[C@H]2C(=O)N[C@@H](CCNC(=O)[C@@H](N)CCCCNC(=O)CC[C@H](NC(=O)[C@H](CCCNC(=N)N)NC(=O)[C@@H]2CCCN2C(=O)[C@H](CCCNC(=N)N)NC(=O)[C@H](CC(N)=O)NC(=O)[C@H](CCC(N)=O)NC(=O)[C@H](Cc2ccccc2)NC(=O)[C@@H](Cc2ccc(OC)cc2)NC(=O)Cc2ccccc2)C(N)=O)C(=O)NCC(N)=O)NC(=O)[C@H](CC(N)=O)NC(=O)[C@H](CCC(N)=O)NC1=O ; system human V1aR (Homo sapiens, UniProt P37288)
### Response 63%

### Prompt Report measured Emax on human V1aR (Homo sapiens, UniProt P37288); entry: CC[C@H](C)[C@@H]1NC(=O)[C@H](Cc2ccccc2)NC(=O)[C@@H](O)CSSC[C@@H](C(=O)N2CCC[C@H]2C(=O)N[C@@H](CCCNCCCCCNC(=O)CC[C@H](NC(=O)[C@H](CCCNC(=N)N)NC(=O)[C@@H]2CCCN2C(=O)[C@H](C)NC(=O)[C@H](CC(N)=O)NC(=O)[C@H](CCC(N)=O)NC(=O)[C@H](Cc2ccccc2)NC(=O)[C@@H](Cc2ccc(OC)cc2)NC(=O)Cc2ccccc2)C(N)=O)C(=O)NCC(N)=O)NC(=O)[C@H](CC(N)=O)NC(=O)[C@H](CCC(N)=O)NC1=O
### Response 51%

### Prompt Find the measured Emax of CC[C@H](C)[C@@H]1NC(=O)[C@H](Cc2ccccc2)NC(=O)[C@@H](N)CSSC[C@@H](C(=O)N2CCC[C@H]2C(=O)N[C@@H](CCCNCCCCCCNC(=O)CC[C@H](NC(=O)[C@H](CCCNC(=N)N)NC(=O)[C@@H]2CCCN2C(=O)[C@H](C)NC(=O)[C@H](CC(N)=O)NC(=O)[C@H](CCC(N)=O)NC(=O)[C@H](Cc2ccccc2)NC(=O)[C@@H](Cc2ccc(OC)cc2)NC(=O)CC(C)C)C(N)=O)C(=O)NCC(N)=O)NC(=O)[C@H](CC(N)=O)NC(=O)[C@H](CCC(N)=O)NC1=O with human V1aR (Homo sapiens, UniProt P37288) as test system.
### Response 47%

New cases:
### Prompt Given CC[C@H](C)[C@@H]1NC(=O)[C@H](Cc2ccccc2)NC(=O)[C@@H](O)CSSC[C@@H](C(=O)N2CCC[C@H]2C(=O)N[C@@H](CCNC(=O)[C@@H](N)CCCCNC(=O)CC[C@H](NC(=O)[C@H](CCCNC(=N)N)NC(=O)[C@@H]2CCCN2C(=O)[C@H](CCCCN)NC(=O)[C@H](CC(N)=O)NC(=O)[C@H](CCC(N)=O)NC(=O)[C@H](Cc2ccccc2)NC(=O)[C@@H](Cc2ccc(OC)cc2)NC(=O)CC(C)C)C(N)=O)C(=O)NCC(N)=O)NC(=O)[C@H](CC(N)=O)NC(=O)[C@H](CCC(N)=O)NC1=O , report its Emax on human V1aR (Homo sapiens, UniProt P37288).
### Response 50%
